Attribution: ChEMBL document CHEMBL4118109

Target: Mitogen-activated protein kinase 1 (Homo sapiens, UniProt P28482)
Sequence (P28482 whole entry): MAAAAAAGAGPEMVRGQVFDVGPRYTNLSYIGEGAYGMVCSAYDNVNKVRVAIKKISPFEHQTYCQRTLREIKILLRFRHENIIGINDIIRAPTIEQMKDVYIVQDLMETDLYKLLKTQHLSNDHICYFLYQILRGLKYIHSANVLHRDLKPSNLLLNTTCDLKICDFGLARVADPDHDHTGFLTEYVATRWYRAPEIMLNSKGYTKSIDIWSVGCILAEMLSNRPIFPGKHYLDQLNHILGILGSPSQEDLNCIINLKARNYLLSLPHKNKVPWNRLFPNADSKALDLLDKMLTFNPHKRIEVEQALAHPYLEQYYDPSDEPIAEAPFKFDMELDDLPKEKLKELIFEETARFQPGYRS
Assay: Binding affinity to ATP-binding site of ERK2 (unknown origin) assessed as reduction in signal intensity in presence of […] by competitive 19F NMR spectroscopy
Design: concentration or dose not given beside the values
Please provide measured Activity for the entries that follow.
// return numeric value only (unit: %, not printed)

// Activity lookup, molecule = CC(C)(C)OC(=O)N1CCC2(CC1)C(=O)Nc1ccc(F)cc12 , result: 13

// Activity lookup, molecule = Fc1ccc2[nH]cc(C3CCOCC3)c2c1 , result: 10

// Activity lookup, molecule = COCCCNc1ccc(F)cc1[N+](=O)[O-] , result: 10

// Activity lookup, molecule = Nc1cnc(Nc2ccc(C(F)(F)F)cc2)nc1 , result: 7

// Activity lookup, molecule = Fc1ccc2[nH]cc(C3CCCNC3)c2c1 (stereo unspecified) , result: 9

// Activity lookup, molecule = O=C1c2ccc(F)cc2CN1[C@H]1CCCNC1 , result: 2

// Activity lookup, molecule = Fc1cccc(-c2nnc3ccc(Br)cn23)c1 , result: 16

// Activity lookup, molecule = Fc1cccc2c1CC1(CCOCC1)CN2 , result: 14

// Activity lookup, molecule = Nc1c(F)cccc1N1CCCCC1 , result: 7

// Activity lookup, molecule = CC(C)(C)OC(=O)N1CCC(Cc2cccc(C(F)(F)F)c2)(C(=O)O)CC1 , result: 23

// Activity lookup, molecule = FC(F)(F)c1cnn2cc(Br)cnc12 , result: -4

// Activity lookup, molecule = O=C(O)c1ccc2nc(-c3ccccc3F)nn2c1 , result: 17

// Activity lookup, molecule = Fc1ccc2c(CC3CCOCC3)c[nH]c2c1 , result: 22

// Activity lookup, molecule = Fc1ccc2[nH]cc(CC3CCOCC3)c2c1 , result: 19

// Activity lookup, molecule = Nc1ccc2nc(-c3ccc(F)cc3)nn2c1 , result: 15

// Activity lookup, molecule = O=C1c2cccc(F)c2CN1[C@H]1CCCNC1 , result: -1
